PROTOCOL_TEXT: head-to-tail lactamisation of linear tetramer (amino acid/peptoid hybrids) with HATU (1.5 equiv), DIPEA (8 equiv); dropwise addition of linear precursor to HATU solution
CONDITION: the molecule shown is the open-chain precursor; 12-membered ring; DMF; 5.0 mM; 21.0 °C; 30.0 h; 10 steps
Would you please tag the item met when its ring closure, overall yield is 40% or above, and not met when it is below?

Some solved cases for reference:
CCCC[C@H](NC(=O)[C@H]1CCCN1C(=O)[C@@H](N)Cc1ccccc1)C(=O)N[C@@H](Cc1c[nH]c2ccccc12)C(=O)O: not met
CCCC[C@H](NC(=O)[C@H]1CCCN1C(=O)[C@@H](N)CC(C)C)C(=O)N[C@@H](Cc1c[nH]c2ccccc12)C(=O)O: not met
CCCC[C@H](NC(=O)[C@H]1CCCN1C(=O)[C@@H](N)[C@@H](C)CC)C(=O)N[C@@H](Cc1c[nH]c2ccccc12)C(=O)O: not met
CCCC[C@H](NC(=O)[C@H]1CCCN1C(=O)[C@@H](N)CC(C)C)C(=O)N[C@@H](Cc1ccccc1)C(=O)O: met
C=CCN(CC(=O)N[C@@H](Cc1ccccc1)C(=O)O)C(=O)[C@H]1CCCN1C(=O)CNC1CCCCC1: met

Alright, here's another compound for you.
Threshold query (ring closure, overall yield >= 40%) on CC[C@H](C)[C@H](N)C(=O)N1CCC[C@@H]1C(=O)N[C@@H](COC(C)(C)C)C(=O)N[C@@H](Cc1ccccc1)C(=O)O
met
